TEST_DETAILS: single oral dose pharmacokinetics study of estetrol in healthy postmenopausal volunteers
Format: in vivo, human
SETTINGS: female, human, plasma, po, 100 mg, 100 mg oral estetrol; read-out: Cmax (range)

>  <COMPOUND_STRING>
C[C@]12CC[C@@H]3c4ccc(O)cc4CC[C@H]3[C@@H]1[C@@H](O)[C@@H](O)[C@@H]2O

>  <Cmax>
119 to 213 ng/mL

$$$$

* * *

TEST_DETAILS: single oral dose pharmacokinetics study of estetrol in healthy postmenopausal volunteers
Type: in vivo, human
SETTINGS: female, human, plasma; single oral dose, final elimination phase; read-out: terminal half-life (converted)

>  <COMPOUND>
C[C@]12CC[C@@H]3c4ccc(O)cc4CC[C@H]3[C@@H]1[C@@H](O)[C@@H](O)[C@@H]2O [estetrol]

>  <half-life>
~28 h

$$$$
